Experiment: Volume of distribution in C57 Black mouse liver at 10 mg/kg, iv
Format: ADME, organism-based
observed_property: Vd (L/kg)
Answers are plain numbers, in L/kg.

Req: Look up and report measured Vd for this entry: O=C(CCCc1cccs1)N1CCN(c2ccc(C(F)(F)F)cc2)CC1
Resp: 3.06

====

Biological target: CYP2C9 (Homo sapiens)
Sequence (P11712 whole entry): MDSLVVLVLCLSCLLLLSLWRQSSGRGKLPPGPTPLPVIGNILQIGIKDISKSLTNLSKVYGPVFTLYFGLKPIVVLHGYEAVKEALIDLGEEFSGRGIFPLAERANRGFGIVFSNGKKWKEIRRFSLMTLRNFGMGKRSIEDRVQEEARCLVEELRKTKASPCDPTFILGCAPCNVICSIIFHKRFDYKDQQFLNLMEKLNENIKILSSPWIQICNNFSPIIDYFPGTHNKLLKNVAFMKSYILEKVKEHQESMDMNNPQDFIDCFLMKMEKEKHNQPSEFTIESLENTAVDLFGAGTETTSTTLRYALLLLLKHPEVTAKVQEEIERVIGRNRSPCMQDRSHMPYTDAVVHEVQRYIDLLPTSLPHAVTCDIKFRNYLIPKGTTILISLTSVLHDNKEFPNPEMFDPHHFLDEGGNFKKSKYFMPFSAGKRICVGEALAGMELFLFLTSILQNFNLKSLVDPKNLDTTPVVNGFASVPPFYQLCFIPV
Experiment: Inhibition of human CYP2C9 using fluorogenic substrate incubated for 60 mins in presence of NADPH by fluorescence assay relative to control
Assay type: ADME
Conditions: probe fluorogenic substrate
observed_property: inhibition at 1 h (%)
Numbers only, in %.

Req: Report inhibition at 1 h, nothing else, for this molecule: O=C(CCCc1cccs1)N1CCN(c2ccc(C(F)(F)F)cc2)CC1
Resp: 74.2
